method: clinical
runParameters: human, in vivo, 25 mg, Cmax
quantityKind: Cmax (ng/mL)
Please give a number only; it is taken to be in ng/mL.

[ask] Dear colleague, I am looking for the recorded Cmax of the following compound: COC(=O)N[C@H](C(=O)N1CCC[C@H]1c1nc2cc(-c3csc4c(-c5ccc(-c6cnc([C@@H]7CCCN7C(=O)[C@H](NC(=O)OC)c7ccccc7)[nH]6)cc5)csc34)ccc2[nH]1)C(C)C [the Compound]
[reply] 14

---

method: Phase I/IIa Group A: pharmacokinetics in healthy subjects
Assay type: in vivo, human
runParameters: human, plasma, oral, 25 mg, healthy subjects, 25 mg single dose, fasted, PK Day 1, mean ± SD
quantityKind: Cmax (ng/mL)
Write down the numeric answer in ng/mL and omit the unit.

[ask] Any idea what its Cmax is? The compound is `COC(=O)N[C@H](C(=O)N1CCC[C@H]1c1nc2cc(-c3csc4c(-c5ccc(-c6cnc([C@@H]7CCCN7C(=O)[C@H](NC(=O)OC)c7ccccc7)[nH]6)cc5)csc34)ccc2[nH]1)C(C)C`
[reply] 26.5

// data source = patent US20150224085A1
